targetOrSystem: High affinity choline transporter 1 (Mus musculus)
Sequence (Q8BGY9 whole entry): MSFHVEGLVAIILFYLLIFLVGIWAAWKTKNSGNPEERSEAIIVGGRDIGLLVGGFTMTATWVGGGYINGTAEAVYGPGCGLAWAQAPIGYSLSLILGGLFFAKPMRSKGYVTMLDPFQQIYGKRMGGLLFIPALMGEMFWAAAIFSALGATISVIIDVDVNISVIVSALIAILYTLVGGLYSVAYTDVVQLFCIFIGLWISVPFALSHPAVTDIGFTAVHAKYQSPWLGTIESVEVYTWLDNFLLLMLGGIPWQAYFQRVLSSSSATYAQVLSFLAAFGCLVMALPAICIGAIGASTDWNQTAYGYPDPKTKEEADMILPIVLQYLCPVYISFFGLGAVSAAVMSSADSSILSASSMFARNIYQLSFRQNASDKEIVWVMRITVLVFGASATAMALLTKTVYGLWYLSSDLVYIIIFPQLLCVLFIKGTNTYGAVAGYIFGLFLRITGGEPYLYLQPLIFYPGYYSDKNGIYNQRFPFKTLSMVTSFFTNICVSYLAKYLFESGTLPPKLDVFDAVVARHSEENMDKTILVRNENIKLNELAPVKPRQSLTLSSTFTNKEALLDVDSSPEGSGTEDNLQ
methodDescription: Inhibition of [3H]choline uptake at choline transporter 1 in mouse brain synaptosome
Reported Ki values for a set of compounds
readoutType: Ki

[[record]]
structuresmilesstring = "CNC"
endpointresult = "9420 µM"

[[record]]
structuresmilesstring = "CC[N+]1(CCC#Cc2cc(OC)c(OC)c(OC)c2)CCCCC1"
endpointresult = "0.18 µM"

[[record]]
structuresmilesstring = "C[N+]12CCC(CC1)C(=O)C2"
endpointresult = "0.521 µM"

[[record]]
structuresmilesstring = "CCOC(=O)CC[N+](C)(C)C"
endpointresult = "340 µM"

[[record]]
structuresmilesstring = "CC[N+]1(CCC#Cc2cc(OC)c(OC)c(OC)c2)CCCC1"
endpointresult = "0.2 µM"

[[record]]
structuresmilesstring = "CN(C)CCO"
endpointresult = "55.7 µM"

[[record]]
structuresmilesstring = "C[N+](C)(C)C"
endpointresult = "30.1 µM"

